Recorded Kd values for a group of binders are listed next.
Molecular target: T1, H. sapiens EHMT1 catalytic subunit (amino acids 982 to 1266) (H. sapiens, UniProt Q9H9B1 982-1266)
T1 construct: EHMT1 (G9a-like protein, KMT1D), human, catalytic subunit, amino acids 982 to 1266; UniProt entry Q9H9B1 is printed for human EHMT1; Plasmid from Addgene (gift of Cheryl Arrowsmith); The tag is surmised from the nickel column purification; also called G9a-like protein; GLP; source: Rosetta E. coli, purified (HisTrap FF nickel column, dialysis)
T1 sequence (looked up): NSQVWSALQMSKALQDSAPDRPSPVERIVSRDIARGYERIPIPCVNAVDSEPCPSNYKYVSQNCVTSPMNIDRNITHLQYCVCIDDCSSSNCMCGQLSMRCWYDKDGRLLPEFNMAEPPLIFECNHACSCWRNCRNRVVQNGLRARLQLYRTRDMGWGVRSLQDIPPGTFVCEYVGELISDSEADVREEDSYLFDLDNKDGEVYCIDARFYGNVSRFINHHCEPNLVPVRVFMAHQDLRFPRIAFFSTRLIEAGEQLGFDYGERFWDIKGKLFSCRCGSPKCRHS
Assay: fluorescence polarisation; enzyme titrated (0-10 uM, monomeric) against a fixed 20-100 nM of N-terminus 5-FAM labeled H3(1-17) peptide, with 100 uM SAH; 50 mM HEPES pH 7.9, 2 mM MgCl2, 0.5 mM DTT, 0.1 mM AEBSF, 0.01% Triton X-100, 10% glycerol; 10 min at 25 °C; one site specific binding fit
Details: both partners purified
*: point of attachment. 5FAM = O=C1OC2(c3ccc(O)cc3Oc3cc(O)ccc32)c2ccc(C(=O)*)cc21
Please give a number only; it is taken to be in nM.

Ask: Given the entry ARTKQTARKSTGGKAPR (peptide, UniProt P68431 2-18, looked up, 5-Carboxyfluorescein (5-FAM) on the N-terminus; dimethyl-lysine at 9, Histone H3, residues 1-17, lysine 9 dimethylated; Made on Rink-amide resin, so the C-terminus is probably an amide (surmised); also called H3K9me2; source: synthetic peptide (solid phase synthesis on Rink-amide ChemMatrix resin, C18-HPLC-purified)) [H3(1-17) K9 dimethylated peptide, N-terminus 5-FAM labeled] , report its measured Kd.
Reply: 124

Ask: Same read-out for ARTKQTARKSTGGKAPR (peptide, UniProt P68431 2-18, looked up, 5-Carboxyfluorescein (5-FAM) on the N-terminus; monomethyl-lysine at 9, Histone H3, residues 1-17, lysine 9 monomethylated; Made on Rink-amide resin, so the C-terminus is probably an amide (surmised); also called H3K9me1; source: synthetic peptide (solid phase synthesis on Rink-amide ChemMatrix resin, C18-HPLC-purified)) [H3(1-17) K9 monomethylated peptide, N-terminus 5-FAM labeled] ?
Reply: 74

Ask: Same read-out for 5FAM-ARTKQTARKSTGGKAPR-NH2 (peptide, UniProt P68431 2-18, looked up, Histone H3, residues 1-17, lysine 9 unmodified; Made on Rink-amide resin, so the C-terminus is probably an amide (surmised); Residues 1-17 are the same in H3.1, H3.2 and H3.3; also called H3K9un; source: synthetic peptide (solid phase synthesis on Rink-amide ChemMatrix resin, C18-HPLC-purified)) [H3(1-17) K9 unmodified peptide, N-terminus 5-FAM labeled] ?
Reply: 29

Source of measurements: paper PMC10404681
